System: LAPC4 prostate cancer cells, which express the AKT1 E17K allele
Test: Antiproliferative effects in LAPC4 cells (CellTiter Glo, 72 h)
Type: cell-based
Conditions: Homo sapiens, LAPC4, 72 h, read-out: LAPC4 proliferation IC50: GeoMean IC50
pIC50: −log10 of the molar value.
Overview of reported pIC50 across a group of compounds:

Sample records with pIC50:
* Nc1ncccc1-c1nc2ccc(-n3cccn3)nc2n1-c1ccc2c(c1)CC[C@@H]2NC(=O)c1cc(C=O)c2[nH]ncc2c1 | 7.00 to 8.00
* Cn1ccc(-c2ccc3nc(-c4cccnc4N)n(-c4ccc5c(c4)CC[C@@H]5NC(=O)c4ccc(O)c(C=O)c4)c3n2)n1 | 7.00 to 8.00
* Nc1ncccc1-c1nc2ccc(-c3ccccc3)nc2n1-c1ccc2c(c1)CC[C@@H]2NC(=O)c1cc(C=O)c(O)cc1F | 5.70 to 7.00

Request: Name the recorded pIC50 of "Nc1ncccc1-c1nc2ccc(-c3ccccc3)nc2n1-c1ccc2c(c1)C(=O)C[C@@H]2NC(=O)c1ccc(O)c(C=O)c1" , assay system LAPC4 prostate cancer cells, which express the AKT1 E17K allele.
Result: 5.70 to 7.00

Request: # return pIC50 of "Nc1ncccc1-c1nc2ccc(-c3ncc(F)s3)nc2n1-c1ccc2c(c1)CC[C@@H]2NC(=O)c1cc(C=O)c(O)c(F)c1F" (system: LAPC4 prostate cancer cells, which express the AKT1 E17K allele)
Result: 7.00 to 8.00

Request: Consider the compound "Nc1ncccc1-c1nc2ccc(-n3ccnn3)nc2n1-c1ccc2c(c1)CC[C@@H]2NC(=O)c1ccc(O)c(C=O)c1" tested on LAPC4 prostate cancer cells, which express the AKT1 E17K allele; state its pIC50.
Result: 5.70 to 7.00

====

Biological target: AKT1 WT (Homo sapiens)
Sequence (P31749 whole entry): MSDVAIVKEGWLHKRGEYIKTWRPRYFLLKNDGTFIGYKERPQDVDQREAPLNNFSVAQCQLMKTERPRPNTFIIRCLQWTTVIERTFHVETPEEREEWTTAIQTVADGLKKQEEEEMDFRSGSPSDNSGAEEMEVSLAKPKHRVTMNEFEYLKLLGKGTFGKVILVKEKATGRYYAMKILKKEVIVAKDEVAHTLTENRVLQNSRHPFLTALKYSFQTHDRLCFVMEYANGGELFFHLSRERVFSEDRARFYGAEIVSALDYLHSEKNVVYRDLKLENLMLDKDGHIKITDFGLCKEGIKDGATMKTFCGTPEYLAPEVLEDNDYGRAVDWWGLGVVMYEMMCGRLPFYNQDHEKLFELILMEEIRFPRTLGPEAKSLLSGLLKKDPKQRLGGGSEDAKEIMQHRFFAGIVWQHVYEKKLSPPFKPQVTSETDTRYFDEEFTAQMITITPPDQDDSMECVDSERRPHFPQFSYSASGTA
Assay: Live cell target engagement by NanoBRET competitive probe displacement, AKT1 WT
Conditions: transfected HEK293 cells, 2 h at 37° C., read-out: AKT1 WT IC50: GeoMean IC50
Procedure: Determining live cell AKT1 E17K, AKT1 WT, and AKT2 target engagement by NanoBRET competitive probe displacement. Live cell target engagement assays were performed as described (Vasta, J. D. et al. Cell Chem Biol 2018, 25(11), 206-214). […] After incubation for 2 h at 37° C., luciferase substrate and extracellular luciferase inhibitor were added to all wells, and luminescent intensity at 460 nm and 600 nm were measured on a multimode plate-reader. […]
pIC50: −log10 of the molar value.
readout-kind: pIC50

Consider the following illustrative entries.
- COCc1cc(-n2cccn2)nc2c1nc(-c1cccnc1N)n2-c1ccc2c(c1)CC[C@@H]2NC(=O)c1ccc(O)c(C=O)c1: 7.00 to 8.00
- Nc1ncccc1-c1nc2ccc(-n3ccc(CO)n3)nc2n1-c1ccc2c(c1)CC[C@@H]2NC(=O)c1ccc(O)c(C=O)c1: 7.00 to 8.00
- COc1cc(-n2cccn2)nc2c1nc(-c1cccnc1N)n2-c1ccc2c(c1)CC[C@@H]2NC(=O)c1cc(C=O)c(O)c(F)c1F: 7.00 to 8.00
- Nc1ncccc1-c1nc2ccc(-c3nc(C(F)F)cs3)nc2n1-c1ccc2c(c1)CC[C@@H]2NC(=O)c1ccc(O)c(C=O)c1: 7.00 to 8.00
- Nc1ncccc1-c1nc2ccc(-n3cccn3)nc2n1-c1ccc2c(c1)C(=O)C[C@@H]2NC(=O)c1ccc(O)c(C=O)c1: 5.70 to 7.00

Request: Please supply the value of reported pIC50 for the item "Nc1ncccc1-c1nc2c(-n3cccn3)cc(-n3cccn3)nc2n1-c1ccc2c(c1)CC[C@@H]2NC(=O)c1ccc(O)c(C=O)c1"
Result: 7.00 to 8.00

Request: Name the recorded pIC50 of the molecule listed here: "Nc1ncccc1-c1nc2ccc(-c3cnccn3)nc2n1-c1ccc2c(c1)CC[C@@H]2NC(=O)c1ccc(O)c(C=O)c1"
Result: 7.00 to 8.00

Request: Hello, please tell me recorded pIC50 for this one: "C#Cc1cc(-n2cccn2)nc2c1nc(-c1cccnc1N)n2-c1ccc2c(c1)CC[C@@H]2NC(=O)c1ccc(O)c(C=O)c1"
Result: 5.70 to 7.00

Request: Indicate the recorded pIC50 value for this molecule: "Cc1cnc(N)c(-c2nc3ccc(-n4cccn4)nc3n2-c2ccc3c(c2)CC[C@@H]3NC(=O)c2ccc(O)c(C=O)c2)c1"
Result: 5.70 to 7.00

Request: For the molecule "COc1ccn(-c2ccc3nc(-c4cccnc4N)n(-c4ccc5c(c4)CC[C@@H]5NC(=O)c4ccc(O)c(C=O)c4)c3n2)n1" , give its reported pIC50.
Result: 7.00 to 8.00
